Assay: yeast display, Sf9 membrane polyspecificity reagent, FACS + sequencing; frameworks hold sequencing errors
ENDPOINT: polyreactivity (PSR sort gate)

1. QVQLVESGGGLVQAGGSLRLSCAASGSTFPYYGMGWYRQAPGKERELVAAINSGGSTYYADSVKGRFTISRDNAKNTVYLQMNSLKPEDTAVYYCNAAYPEWYAYDYWGQGTQVTVSS | low polyreactivity
2. QVQLQESGAGLVKAGGSLRLSCAASGNISNHNDMGWYRQAPGKEREFVAGITAGGITNYADSVKRRFTISRDNAKNSVYLQMKSLKPEDTAVYYCAAYPDYDKSYGYWGQGTQATVSS | low polyreactivity
3. QVQLVESGGGLVQAGGSLRLSCAASGITFDDNAMGWYRQAPGKERELVATISDGGRTYYADSVKGRFTISRDNAKNTVYLQMNSLKPEDTAVYYCAAGYPYYHVYGYGYWGQGTQVTVSS | low polyreactivity
4. QVQLVESGGGLVQAGGSLRLSCADSGSISYYAIGWYRQAPRKESELVAAISSSGGSTYYADSVNGRFTISRDNAKNTVYLQMNSLKPEDTAVYYCAAAVTGCYASDYWGQGTQVTVSS | high polyreactivity
5. QVQLVESGGGLVQAGGSLRLSCAASGSTFRRYAMGWYRQAPGKERELVAAITTADITNYADSVKGRFTISRDNAKNTVYLQMNSLKPEDTAVYYCAAPVAYRGSRNFIYRYNYWGQGTQVTVSS | high polyreactivity
6. QVQLVESGGGLVQAGGSLRLSCAASGITFRRNAMGWYRQAPGKERELVAAISLSGTRTYYADSVKGRFTISRDNAKNTVYLQMNSLKPEDTAVYYCAASYYNKFDYWGQGTQVTVSS | high polyreactivity

// switching to the query sequence
Q: Look up polyreactivity (PSR sort gate) for this sequence: QVQLEESGGGLVQAGGSLRLSCAASGSTFGYYAMGWYRQAPGKERELVAAISRSGGITYYADSVKGRFTISRDNAKNTVYLQMNSLKPDDTAVYYCAADRNRYTGEDDSWGQGTQVTVSS
Ans: low polyreactivity

---

Assay: yeast display, Sf9 membrane polyspecificity reagent, FACS + sequencing; frameworks hold sequencing errors
ENDPOINT: polyreactivity (PSR sort gate)

// below: answered sequences
1) QVQLVESGGGLVQAGGSLRLSCAASGLTFGGNARGWYRQAPGNERELVAPISSRGGSTYYADSVKGRFTISRDNAKNTVYLQMNSLKPEDTAVYYCAAGNRYGVRQLYQIVTRYYWGQGTQVTVSS | high polyreactivity
2) QYQLVESGGCLVQAGGTLRLRCAATGFTFKSYAMGWYRHAHGKAWELVAAISNRGGSTYYADSVKGRFTISRDNAKNSVYLQINSLKPEDNAVYYCATQYYVRPFDYWGQGTQVTVSS | high polyreactivity
3) QVQLVESGGGLVQAGGSLRLSCAASGFTFYWYAMGWYRQAPGKERELVATINWRGDTYYADSVKGRFTISRDNAKNTVYLQMNSLKPEDTAVYYCAATKRLAPRPLRLGYGSYNFCGQGTQVTVSS | high polyreactivity
4) QVQLVESGGGLVQAGGSLRFSSAASGRTFSSNAMGWYIQAPGKERELVAAISNSGSSTYYADSVKGRFTISRDNAKNTVYLQMNSLKPEDSAVYYCNAVGVYYWWYRLYDYWGQGTQVTVSS | high polyreactivity
5) QVQLVESGGRLVQAGGSLRLSCAASGSTFVYYAMGWYRQAPGKERELVASINSGGSTYYADSVKGRFTISRDNAKNTVYLQMNSLKQEDTAVYDCAATSIPPSVHLQDPTYDYWGQGTQVTVSS | low polyreactivity
6) QVQLVESGGGLVQAGGSLRLSCAASGRTFHTNAMGWYRQAPGKERELVAAITRSGSGTYYADSVKGRFTISRDNAKNTVYLQMNSLKPEDTAVYYCNAVRRGEYDYWGQGTQVTVSS | high polyreactivity

Q: // polyreactivity (PSR sort gate) lookup, key: QVQLVESGGGLVQAGGSLRISCAASGLIFGINAMGWYIQAPGKERELVATITSGGGTNYADSVKGRFTISRDNAKNTVYLQMNSLKPEYTAVYFCALDSASDTIYDYWGQGTQGTVSS
Ans: low polyreactivity

Q: polyreactivity (PSR sort gate) for QVQLVESGGGLVQAGGSLRLSCAASGSTSPLYAMGWYRQAPGKERELVAAISWSTGSTYYADSVKGRFTISRDNAKNTVYLQMNSLKPEDTAVYYCAADYWFRYGTYEYWGQGTQVTVSS ?
Ans: high polyreactivity

Q: Given QVQLVESGGGLVQAGGSLRLSCAASGSIFYLYAMGWYRQAPGKERELVATITASGGSTNYADSVKGRFTISRDNAKNTVYLQMNSLKPEDTAVYYCAAEYYYLVYYYKEIVAYDYWGQGTQVTVSS , state its recorded polyreactivity (PSR sort gate).
Ans: high polyreactivity

Q: Name the reported polyreactivity (PSR sort gate) value associated with the sequence QVQLVESGGGLVQAGGSLRLSCAASGSTFYPYTMGWYRQAPGKERELVAAITSGGNTNYADSVKGRFTISRDNAKNTVYLQMNSLKPEDTAVYYCNAEPEGTTGNYFPYDYWGQGTQVTVSS
Ans: low polyreactivity

Q: Consider the sequence QVQLVESGGGLVQAGGSLRLSCAASGFIFDQYAMGWYRQAPGKERELVAAITTGGDTNYADSVKGRFTISRDNAKNTVYLQMISLKPDDSAVYYCAAKKWLTSGAFDRVFIEFDYWGQGTQVTVSS and give its measured polyreactivity (PSR sort gate).
Ans: low polyreactivity
